assay: qHTS assay for small molecule disruptors of the mitochondrial membrane potential (AID 720635); conditions: HepG2 mitochondrial membrane potential, Mito-MPS dye ratio; series mostly up to 83.2 µM; also: potency is read from the fitted curve at half-maximal effect
Records with an inconclusive call do not appear. Activity calls are given as the source filed them. Calls follow the shape of the dose curve; as a rule, active = well fitted inhibition curve with a large enough effect in the signal ratio in the repeat runs; inconclusive = weak or mixed curves, or effect the other way; inactive = flat fitted curve, though single readings scatter; the % refers to the signal ratio.
QUANTITY: Potency

Here is how some compounds turned out for Potency.
compound=O=C(c1ccccc1)c1ccc(O)cc1 result="27.6 µM (active)"
compound=CCCCC[C@H](O)/C=C/[C@H]1[C@H](O)CC(=O)[C@@H]1C/C=C\CCCC(=O)O result=inactive
compound=C=CC(=O)NC(C)C result=inactive
compound="CC1CCc2nccnc21 (configuration not stated)" result=inactive
compound=CS(=O)(=O)c1ccc([C@@H](C[C@H]2CCC(=O)C2)C(=O)Nc2cnccn2)cc1Cl result=inactive
compound=Nc1cccc2c(N)cccc12 result="0.864 µM (active)"

Task: Name the reported Potency value associated with the compound COc1ccc(C(=O)NCc2ccc(OCCN(C)C)cc2)cc1OC
Result: inactive

Task: Which value of Potency has been reported for CCCCOC(=O)CCCCC(=O)OCCCC in the records?
Result: inactive

Task: Bench note: what Potency did SCCc1cnccn1 show?
Result: inactive

Task: Report Potency for Cc1c[nH]c2ccccc12 please.
Result: inactive

Task: Value lookup for Potency; key = CSCC[C@H](NC(=O)[C@H](Cc1c[nH]c2ccccc12)NC(=O)CCNC(=O)OC(C)(C)C)C(=O)N[C@@H](CC(=O)O)C(=O)N[C@@H](Cc1ccccc1)C(N)=O
Result: inactive

Task: Endpoint output: Potency of CCCCCCCC(=O)OCCCCCC . Value?
Result: inactive
